Target: T1, RBFOX1 RRM RbFoxmut (Fox-RRM*) (Homo sapiens, UniProt Q9NWB1 109-208, R118D;E147R;N151S;E152T)
T1 sequence: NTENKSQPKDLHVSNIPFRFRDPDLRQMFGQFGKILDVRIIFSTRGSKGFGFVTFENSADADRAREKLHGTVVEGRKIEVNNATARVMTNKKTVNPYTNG
Assay: EMSA; HiTS-Eq, 1 nM pool, 10 min; buffer printed only for the single-RNA assays: 10 mM Tris pH 7.5, 150 mM NaCl, 3.4 mM EDTA, 0.001% NP-40, 30 C
Settings: tags: His6 N-terminal (pET28a); label: 5' 32P
Over roughly 16,000 sequences, “ka relative to ugcaugu” has its median near 0.096; the highest 2% begin near 0.35. This is one part of a sample in which the highest values are shown more often than they occur.
READOUT_LABEL: binding signal

Consider the binder GCUCAAC (DNA:RNA) RNA: GGGAGACCGGAAUUCAGAUUGUCCGCUCAACUUAAAUCCCGUCGUAGCCACCA DNA 1: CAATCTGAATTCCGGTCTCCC DNA 2: TGGTGGCTACGACGGGATT and give its measured binding signal.
0.0746 KA relative to UGCAUGU

Now consider UGAAUGA (DNA:RNA) RNA: GGGAGACCGGAAUUCAGAUUGUCCUGAAUGAUUAAAUCCCGUCGUAGCCACCA DNA 1: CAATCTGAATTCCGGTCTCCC DNA 2: TGGTGGCTACGACGGGATT .
0.46 KA relative to UGCAUGU

Now consider AUUAUUA (DNA:RNA) RNA: GGGAGACCGGAAUUCAGAUUGUCCAUUAUUAUUAAAUCCCGUCGUAGCCACCA DNA 1: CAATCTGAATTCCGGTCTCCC DNA 2: TGGTGGCTACGACGGGATT .
0.154 KA relative to UGCAUGU

Now consider UGAUGAA (DNA:RNA) RNA: GGGAGACCGGAAUUCAGAUUGUCCUGAUGAAUUAAAUCCCGUCGUAGCCACCA DNA 1: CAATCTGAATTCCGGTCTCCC DNA 2: TGGTGGCTACGACGGGATT .
0.122 KA relative to UGCAUGU

Now consider UGCUGAG (DNA:RNA) RNA: GGGAGACCGGAAUUCAGAUUGUCCUGCUGAGUUAAAUCCCGUCGUAGCCACCA DNA 1: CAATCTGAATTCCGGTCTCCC DNA 2: TGGTGGCTACGACGGGATT .
0.102 KA relative to UGCAUGU

Now consider AGCAGCA (DNA:RNA) RNA: GGGAGACCGGAAUUCAGAUUGUCCAGCAGCAUUAAAUCCCGUCGUAGCCACCA DNA 1: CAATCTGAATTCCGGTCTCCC DNA 2: TGGTGGCTACGACGGGATT .
0.14 KA relative to UGCAUGU

Now consider UCUGGCC (DNA:RNA) RNA: GGGAGACCGGAAUUCAGAUUGUCCUCUGGCCUUAAAUCCCGUCGUAGCCACCA DNA 1: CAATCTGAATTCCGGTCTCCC DNA 2: TGGTGGCTACGACGGGATT .
0.161 KA relative to UGCAUGU

Now consider UGAACAA (DNA:RNA) RNA: GGGAGACCGGAAUUCAGAUUGUCCUGAACAAUUAAAUCCCGUCGUAGCCACCA DNA 1: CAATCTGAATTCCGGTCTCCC DNA 2: TGGTGGCTACGACGGGATT .
0.047 KA relative to UGCAUGU

Now consider CGGUACG (DNA:RNA) RNA: GGGAGACCGGAAUUCAGAUUGUCCCGGUACGUUAAAUCCCGUCGUAGCCACCA DNA 1: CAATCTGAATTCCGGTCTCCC DNA 2: TGGTGGCTACGACGGGATT .
0.24 KA relative to UGCAUGU
